Target system: T1, UNK ZnF1-3 (human, UniProt Q9C0B0 31-174)
T1 sequence: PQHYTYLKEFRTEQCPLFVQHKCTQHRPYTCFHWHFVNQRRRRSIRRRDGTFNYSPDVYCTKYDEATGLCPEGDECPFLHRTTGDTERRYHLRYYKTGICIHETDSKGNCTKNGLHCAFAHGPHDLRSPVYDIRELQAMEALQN
Test protocol: nsRBNS (natural sequence RNA bind-n-seq); RBNS binding buffer (assumed for nsRBNS): 25 mM Tris pH 7.5, 150 mM KCl, 3 mM MgCl2, 0.01% Triton X-100, 500 ug/ml BSA, 20 U/ml SUPERase-In, 4 C; UNK is unkempt and MSI1 is Musashi-1; names of the RNAs are library labels; protein concentration not given here; high values mean tight binding
Whole data set: some 24,000 sequences, median “enrichment r” near 0.99, cut for the highest 2% near 3.7. Shown is part of a subset that was picked to be rich in the highest values.
Quantity: binding signal (enrichment R)
Number in enrichment R, nothing else.

chr16:94664741:94664742:+_ENSMUSG00000040785_ENSMUST00000117648|mus_hu|mus_mus_mus_hu_False|1_98 (ssRNA) RNA: GGGAGUUCUACAGUCCGACGAUCUGGUACUGAUCUUUGCAUUGGAUAUUCAGGAGAAAGGCUGGCCAAGGGUGUAUAUAUGCUGGUGUACUGGGGCAAACCUGGUAACACGUUUAUGUAUGCUGGCGGUGUCUGGGUGCCAAACAACAGAGGAUUGAGCAUCA: 0.999

Field: next binder
Q: Fill in the blank: the reported binding signal of chr5:145543945:145543946:-_ENSG00000133706_ENST00000545646|hu_hu|hu_hu_hu_mus_True|1_8 (ssRNA) RNA: GGGAGUUCUACAGUCCGACGAUCCUGAACGGCCAGUGGUGGGAAAUAAUCAAGCCAGUGCUCUGCUUCAGAAAACUUCACUAUGUCGUCAUCAGAGAGCCCAAGGGAUUUCAUAAUGUCCCACUGGUAUUUAGAAGAUCCAGCCAACAGAGGAUUGAGCAUCA is ____.
A: 1.44
